This listing pairs binders with measured OD450.
- targetEntity: T1, GUCY2C protein (Ser24-Gln430) (Homo sapiens (Human), UniProt P25092 24-430)
- T1 construct: Synthesized by GenScript and used as the immunogen; No tags are stated; also called extracellular region of the artificially synthesized GUCY2C protein; Protein GUCY2C
- T1 sequence (P25092 24-430): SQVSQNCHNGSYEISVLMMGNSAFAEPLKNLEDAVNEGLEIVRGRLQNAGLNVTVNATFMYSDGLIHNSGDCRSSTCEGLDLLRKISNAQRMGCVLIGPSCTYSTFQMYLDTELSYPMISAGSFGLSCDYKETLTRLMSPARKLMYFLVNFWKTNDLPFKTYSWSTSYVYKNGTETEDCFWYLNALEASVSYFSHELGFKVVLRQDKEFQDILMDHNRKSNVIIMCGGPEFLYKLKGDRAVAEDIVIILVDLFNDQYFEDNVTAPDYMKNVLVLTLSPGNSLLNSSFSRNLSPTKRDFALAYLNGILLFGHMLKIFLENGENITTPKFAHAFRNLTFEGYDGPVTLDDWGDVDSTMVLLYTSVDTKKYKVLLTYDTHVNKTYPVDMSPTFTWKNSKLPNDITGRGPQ
- assayRemarks: Screening ELISA: culture supernatant of the IPTG-induced HB2151 clone on a plate coated with 1 ug/ml GUCY2C; detection with peroxidase goat anti-alpaca IgG (VHH domain), TMB, absorbance at 450 nm; VHH concentration not given; negative control (NC) bar in the same chart is labelled 0.15
Respond with the number and no other words.

Some solved cases for reference:
binder="C08 (VHH, Alpaca VHH tested as culture supernatant of IPTG-induced HB2151 bacteria (pComb3XSS phagemid); also called C8; clone C08) VHH: EVQLVESGGGLVQPGGSLRLSCAASSNIFRAYGMGWYRQAPGKQREMVAAIWLSGRTEYADAVQGRFTVSRDNAKNTVYLQMNSLKPEDTAVYYCNAGPPTATSVRQYWGQGTQVTVSS" propertylabel=OD450 reportedvalue=0.86
binder="C15 (VHH, Alpaca VHH tested as culture supernatant of IPTG-induced HB2151 bacteria (pComb3XSS phagemid); also called clone C15) VHH: QVQLVESGGGVVQPGGSLRLSCAASSNIFRAYGMDWYRQAPGKQREMVATIWLSGRSTYTDAVQGRFTISRDNAKNTVYLQMNNLKPEDTAVYYCNAGPTTASSVRQYWGQGTQVTVSS" propertylabel=OD450 reportedvalue=1
binder="C21 (VHH, Alpaca VHH tested as culture supernatant of IPTG-induced HB2151 bacteria (pComb3XSS phagemid); also called clone C21) VHH: QVQLVESGGGLVQPGGSLRLSCTSSSNIFRIYGMDWYRQAPGKQREIVATIYLSGRTTYSDAVKGRFTISRDNAKDTVYLQMNSLKPEDTAVYYCNAGEPTASSVRQYWGQGTQVTVSS" propertylabel=OD450 reportedvalue=0.42

Entry C31 (VHH, Alpaca VHH tested as culture supernatant of IPTG-induced HB2151 bacteria (pComb3XSS phagemid); also called clone C31) VHH: AVQLVESGGGLVQPGGSLRLSCAASGSIFRVYGMDWYRQAPGKQRELVASIWLSGRTNYADAVKGRFTLSRDNAKNTMYLQMNSLKPEDTAVYYCNAGETTASSVRQYWGQGTQVTISS : reported OD450 = ?
0.45

The values you see were collected from patent US20240059794A1.
